Record form. Attribute: Percentage of hemolysis at 1 μg/mL. Fill in for each entry.
- Test system: human red blood cells (RBCs)
- Method: Hemolysis assay
- Type: cell-based
- Condition Label: red cells of human, 1 h, 1
Where a SMILES comes first, the peptide text is derived from it.
One number for each entry, in %.

Consider the following illustrative entries.
CC[C@H](C)[C@H](NC(=O)[C@H](C)NC(=O)[C@H](CCCCN)NC(=O)[C@@H](NC(=O)[C@@H](NC(=O)[C@H](CC(=O)O)NC(=O)[C@H](Cc1ccccc1)NC(=O)[C@H](CC(C)C)NC(=O)CN)[C@@H](C)CC)[C@@H](C)CC)C(=O)N[C@@H](C)C(=O)N[C@@H](CCC(=O)O)C(=O)N[C@@H](CO)C(=O)N[C@@H](Cc1ccccc1)C(N)=O [Peptide K8A] (H-GLFDIIKAIAESF-NH2) ... 0.1
CC[C@H](C)[C@H](NC(=O)[C@H](CCCCN)NC(=O)[C@H](CCCCN)NC(=O)[C@@H](NC(=O)[C@@H](NC(=O)[C@H](CC(=O)O)NC(=O)[C@H](Cc1ccccc1)NC(=O)[C@H](CC(C)C)NC(=O)[C@H](C)N)[C@@H](C)CC)[C@@H](C)CC)C(=O)N[C@@H](C)C(=O)N[C@@H](CCC(=O)O)C(=O)N[C@@H](CO)C(=O)N[C@@H](Cc1ccccc1)C(N)=O [Peptide G1A] (H-ALFDIIKKIAESF-NH2) ... 0.0

Ask: Please report Percentage of hemolysis at 1 μg/mL for the following compound: CC[C@H](C)[C@H](NC(=O)[C@H](CCCCN)NC(=O)[C@H](CCCCN)NC(=O)[C@@H](NC(=O)[C@@H](NC(=O)[C@H](CC(=O)O)NC(=O)[C@H](Cc1ccccc1)NC(=O)[C@H](C)NC(=O)CN)[C@@H](C)CC)[C@@H](C)CC)C(=O)N[C@@H](C)C(=O)N[C@@H](CCC(=O)O)C(=O)N[C@@H](CO)C(=O)N[C@@H](Cc1ccccc1)C(N)=O [Peptide L2A] (H-GAFDIIKKIAESF-NH2)
Result: 0.3
